All values here come from ChEMBL document CHEMBL5137006.

- TARGET_ENTITY: DNA (cytosine-5)-methyltransferase 1 (Homo sapiens, UniProt P26358)
- Sequence (P26358 whole entry, the tested form may be a part): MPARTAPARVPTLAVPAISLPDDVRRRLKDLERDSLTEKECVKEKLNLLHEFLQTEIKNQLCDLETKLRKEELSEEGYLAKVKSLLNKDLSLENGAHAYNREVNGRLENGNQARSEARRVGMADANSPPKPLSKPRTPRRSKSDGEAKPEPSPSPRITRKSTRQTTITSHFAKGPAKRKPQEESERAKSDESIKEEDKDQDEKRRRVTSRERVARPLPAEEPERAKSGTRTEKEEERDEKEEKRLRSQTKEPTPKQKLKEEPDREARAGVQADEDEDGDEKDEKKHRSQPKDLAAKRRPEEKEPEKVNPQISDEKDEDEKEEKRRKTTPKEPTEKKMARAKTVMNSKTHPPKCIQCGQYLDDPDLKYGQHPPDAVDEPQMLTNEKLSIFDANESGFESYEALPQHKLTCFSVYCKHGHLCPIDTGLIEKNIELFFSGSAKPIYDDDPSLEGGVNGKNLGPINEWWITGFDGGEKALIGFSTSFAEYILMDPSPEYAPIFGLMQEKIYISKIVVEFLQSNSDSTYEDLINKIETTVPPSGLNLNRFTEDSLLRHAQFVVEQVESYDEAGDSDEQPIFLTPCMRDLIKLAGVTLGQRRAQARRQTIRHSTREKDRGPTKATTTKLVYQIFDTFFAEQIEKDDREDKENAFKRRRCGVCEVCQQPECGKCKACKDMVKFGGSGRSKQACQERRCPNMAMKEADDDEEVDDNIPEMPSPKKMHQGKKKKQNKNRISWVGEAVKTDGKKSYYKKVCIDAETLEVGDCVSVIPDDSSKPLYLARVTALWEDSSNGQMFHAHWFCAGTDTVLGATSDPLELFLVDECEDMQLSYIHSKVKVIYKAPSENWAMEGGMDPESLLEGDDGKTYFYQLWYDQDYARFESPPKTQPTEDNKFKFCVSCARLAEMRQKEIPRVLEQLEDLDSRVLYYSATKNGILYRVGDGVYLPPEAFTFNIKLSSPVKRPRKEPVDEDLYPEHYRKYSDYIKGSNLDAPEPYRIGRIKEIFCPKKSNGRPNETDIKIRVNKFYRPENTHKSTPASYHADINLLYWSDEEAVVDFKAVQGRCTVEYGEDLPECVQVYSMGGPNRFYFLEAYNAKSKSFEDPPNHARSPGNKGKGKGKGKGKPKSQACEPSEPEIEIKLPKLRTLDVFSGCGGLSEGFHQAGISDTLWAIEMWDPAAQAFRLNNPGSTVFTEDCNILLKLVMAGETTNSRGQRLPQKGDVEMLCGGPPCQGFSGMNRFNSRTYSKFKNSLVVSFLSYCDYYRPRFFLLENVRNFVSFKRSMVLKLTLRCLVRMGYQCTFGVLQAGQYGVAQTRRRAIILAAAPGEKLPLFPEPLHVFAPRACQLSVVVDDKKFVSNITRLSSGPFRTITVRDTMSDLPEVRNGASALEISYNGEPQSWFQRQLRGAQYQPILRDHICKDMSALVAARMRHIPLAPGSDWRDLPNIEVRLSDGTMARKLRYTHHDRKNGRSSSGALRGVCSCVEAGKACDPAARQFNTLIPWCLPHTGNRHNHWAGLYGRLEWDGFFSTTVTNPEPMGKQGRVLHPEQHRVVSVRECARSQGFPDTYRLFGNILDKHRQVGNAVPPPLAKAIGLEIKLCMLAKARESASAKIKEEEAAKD
- RUN_DESCRIPTION: Inhibition of human C-terminal domain DNMT1 catalytic domain (351 to 1600 residues) expressed in Escherichia coli BL21-CodonPlus (DE3)-RIL cells assessed as inhibition of methylated dI-dC formation using poly dI-dC and 1 uM [Me-3H]SAM as substrate incubated for 2 hrs by liquid scintillation counting analysis
ENDPOINT: IC50 (µM)
Answers are plain numbers, in µM.

Lookup: IC50 / DNA (cytosine-5)-methyltransferase 1 (Homo sapiens, UniProt P26358) / Nc1nc(=O)n([C@H]2C[C@H](O)[C@@H](CO)O2)cc1CNCC(CC[C@H](N)C(=O)O)C[C@H]1O[C@@H](n2cnc3c(N)ncnc32)[C@H](O)[C@@H]1O (stereo partly specified)
3.5
